Target: T1, recombinant human EphB4 (rhEphB4) (human, UniProt P54760 16-539, limits assumed)
T1 construct: Bought protein; also called purified EphB4; immobilized EphB4
T1 sequence (looked up): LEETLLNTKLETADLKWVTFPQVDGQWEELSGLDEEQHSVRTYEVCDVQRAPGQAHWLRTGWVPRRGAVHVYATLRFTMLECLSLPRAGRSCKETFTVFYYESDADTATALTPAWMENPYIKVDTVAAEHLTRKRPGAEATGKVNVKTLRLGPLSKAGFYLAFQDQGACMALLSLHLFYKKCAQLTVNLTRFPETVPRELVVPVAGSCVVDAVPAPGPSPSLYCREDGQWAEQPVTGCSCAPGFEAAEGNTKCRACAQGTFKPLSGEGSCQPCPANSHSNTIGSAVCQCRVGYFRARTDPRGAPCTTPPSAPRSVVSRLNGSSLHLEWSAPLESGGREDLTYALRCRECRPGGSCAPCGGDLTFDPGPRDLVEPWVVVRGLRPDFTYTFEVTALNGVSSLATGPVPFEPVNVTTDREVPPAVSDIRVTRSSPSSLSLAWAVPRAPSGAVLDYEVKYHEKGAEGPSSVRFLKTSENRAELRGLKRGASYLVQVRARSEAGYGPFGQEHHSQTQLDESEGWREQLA
Experiment: SPR, peptide over immobilized EphB4, 1:1 mass transfer interaction model
Square brackets hold non-standard residues; d marks the D form. Ends that are not written are not given here.
value.type: Kd
# number then unit; no other words

Input: Note Kd for the binder shown: TN[dY]LFSPNGPIARAW (Synthetic 15-mer made by solid phase synthesis on Rink resin; also called EphB4 agonist peptide) [BIDEN-AP (bi-directional ephrin agonist peptide), TN(dY)LFSPNGPIARAW]
Output: 7 nM
